# system_name: Glucocorticoid receptor (Homo sapiens, UniProt P04150); also: assay procedure not described here
# Sequence (P04150 whole entry): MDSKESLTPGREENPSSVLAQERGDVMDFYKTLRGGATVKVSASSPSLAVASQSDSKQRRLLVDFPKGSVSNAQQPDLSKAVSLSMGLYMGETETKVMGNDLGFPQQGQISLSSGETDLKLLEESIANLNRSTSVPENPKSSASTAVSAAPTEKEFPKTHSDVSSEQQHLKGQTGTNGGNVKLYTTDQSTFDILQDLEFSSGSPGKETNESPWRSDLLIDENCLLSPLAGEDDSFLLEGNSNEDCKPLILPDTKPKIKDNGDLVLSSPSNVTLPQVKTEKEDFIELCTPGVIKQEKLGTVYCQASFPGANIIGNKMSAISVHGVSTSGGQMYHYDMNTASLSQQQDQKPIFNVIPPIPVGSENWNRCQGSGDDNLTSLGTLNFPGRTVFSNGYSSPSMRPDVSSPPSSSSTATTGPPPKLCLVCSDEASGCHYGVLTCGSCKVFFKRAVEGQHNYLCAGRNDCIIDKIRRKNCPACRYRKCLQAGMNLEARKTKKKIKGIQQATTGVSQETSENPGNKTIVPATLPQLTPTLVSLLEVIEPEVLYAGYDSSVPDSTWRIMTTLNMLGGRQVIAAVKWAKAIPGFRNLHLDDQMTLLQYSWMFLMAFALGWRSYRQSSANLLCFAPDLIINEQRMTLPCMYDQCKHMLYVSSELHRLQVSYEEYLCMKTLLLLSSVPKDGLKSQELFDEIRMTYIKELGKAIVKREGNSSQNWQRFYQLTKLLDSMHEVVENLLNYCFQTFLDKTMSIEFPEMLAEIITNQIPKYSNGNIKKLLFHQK
recorded_metric: AC50

# item_smiles, recorded_metric, recorded_result
rows = [
    ("O=C(O)CCCC[C@@H]1SC[C@@H]2NC(=O)N[C@@H]21", "AC50", "> 10 µM"),
    ("O=C1CN=C(c2ccccc2Cl)c2cc([N+](=O)[O-])ccc2N1", "AC50", "> 30 µM"),
    ("CCOC(=O)Nc1ccc(NCc2ccc(F)cc2)nc1N", "AC50", "> 30 µM"),
    ("CCOC(=O)[C@H](CCc1ccccc1)N[C@@H](C)C(=O)N1Cc2ccccc2C[C@H]1C(=O)O", "AC50", "> 30 µM"),
    ("CC1=C(C(=O)O)N2C(=O)[C@@H](NC(=O)[C@H](N)C3=CCC=CC3)[C@H]2SC1", "AC50", "> 30 µM"),
]
